target: Prostaglandin E2 receptor EP4 subtype (Rattus norvegicus, UniProt P43114); assay: Agonist activity at rat EP4 receptor expressed in CHO cells assessed as cAMP production after 10 mins by radioimmunoassay
Sequence (P43114 whole entry): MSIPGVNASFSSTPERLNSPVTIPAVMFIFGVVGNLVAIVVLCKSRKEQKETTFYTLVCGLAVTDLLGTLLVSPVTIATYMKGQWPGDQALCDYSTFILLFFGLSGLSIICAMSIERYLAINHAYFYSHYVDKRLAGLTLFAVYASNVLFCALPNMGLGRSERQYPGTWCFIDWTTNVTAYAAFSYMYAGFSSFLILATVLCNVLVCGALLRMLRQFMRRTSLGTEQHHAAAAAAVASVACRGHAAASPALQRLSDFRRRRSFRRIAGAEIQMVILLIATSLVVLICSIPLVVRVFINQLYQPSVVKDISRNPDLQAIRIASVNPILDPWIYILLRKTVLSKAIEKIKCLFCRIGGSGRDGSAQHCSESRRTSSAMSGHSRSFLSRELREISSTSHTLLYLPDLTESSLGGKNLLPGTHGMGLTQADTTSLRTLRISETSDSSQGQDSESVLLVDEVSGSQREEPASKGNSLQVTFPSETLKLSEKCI
OBSERVED PROPERTY: EC50 (µM)
Please state the figure in µM; there is no need to write the unit.

Illustrative cases are given below, each with its answer.
COCc1cccc(C[C@H](O)/C=C/[C@H]2CSC(=O)N2CCSCCCC(=O)O)c1 = 0.0024
CCCc1cccc(C[C@H](O)/C=C/[C@H]2CCC(=S)N2CCCCCCC(=O)O)c1 = 0.027
O=C(O)CCCSCCN1C(=O)OC[C@@H]1/C=C/[C@@H](O)Cc1cccc(-c2ccccc2)c1 = 0.45
O=C(O)CCCSCCN1C(=O)SC[C@@H]1/C=C/[C@@H](O)Cc1cccc(F)c1 = 0.0057

# ---- query molecule ----
Find the recorded EC50 belonging to CCc1cccc(C[C@H](O)/C=C/[C@H]2COC(=O)N2CCSCCCC(=O)O)c1 and report it.
0.018

----------
What follows is a collection of Ki values obtained with Prostaglandin E2 receptor EP4 subtype (Mus musculus, UniProt P32240).
Sequence (P32240 whole entry): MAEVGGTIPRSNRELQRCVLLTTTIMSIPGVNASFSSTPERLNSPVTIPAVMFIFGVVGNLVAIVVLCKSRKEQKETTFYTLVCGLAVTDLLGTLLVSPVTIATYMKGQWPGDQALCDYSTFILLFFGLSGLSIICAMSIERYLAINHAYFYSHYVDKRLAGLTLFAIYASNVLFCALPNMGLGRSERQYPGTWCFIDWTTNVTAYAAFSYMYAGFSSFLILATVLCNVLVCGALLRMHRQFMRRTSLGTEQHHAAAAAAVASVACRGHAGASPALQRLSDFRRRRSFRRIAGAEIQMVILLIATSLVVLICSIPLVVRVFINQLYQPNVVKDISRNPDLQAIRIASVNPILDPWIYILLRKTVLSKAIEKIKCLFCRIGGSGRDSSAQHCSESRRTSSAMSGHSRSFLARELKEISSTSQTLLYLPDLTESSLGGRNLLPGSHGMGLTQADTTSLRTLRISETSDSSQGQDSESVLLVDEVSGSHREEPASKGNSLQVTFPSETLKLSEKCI
Use nM as the unit, but write only the number.

CCCc1cccc(C[C@H](O)/C=C/[C@H]2CSC(=O)N2CCSCCCC(=O)O)c1 = 0.98
CCc1cccc(C[C@H](O)/C=C/[C@H]2CCC(=S)N2CCCCCCC(=O)O)c1 = 0.83
O=C(O)CCCSCCN1C(=O)OC[C@@H]1/C=C/[C@@H](O)Cc1cccc(-c2ccccc2)c1 = 28
O=C(O)CCCSCCN1C(=O)SC[C@@H]1/C=C/[C@@H](O)Cc1ccccc1 = 0.65
O=C(O)CCCSCCN1C(=O)OC[C@@H]1/C=C/[C@@H](O)Cc1ccccc1 = 4.2
CCc1cccc(C[C@H](O)/C=C/[C@H]2COC(=O)N2CCSCCCC(=O)O)c1 = 7.9
COCc1cccc(C[C@H](O)/C=C/[C@H]2CSC(=O)N2CCSCCCC(=O)O)c1 = 1.2
O=C(O)CCCCCCN1C(=S)CC[C@@H]1/C=C/[C@@H](O)Cc1cccc(C(F)(F)F)c1 = 0.38

We now examine a further compound.
Look up Ki with Prostaglandin E2 receptor EP4 subtype (Mus musculus, UniProt P32240) for this compound: COCc1cccc(C[C@H](O)/C=C/[C@H]2CCC(=O)[C@@H]2CCSCCCC(=O)O)c1
2.4

----------
experiment: Total clearance rat at 0.1 mg/kg, iv and 1 mg/kg, po; type: ADME, organism-based; details: in vivo
OBSERVED PROPERTY: clearance
Reply with the number and its unit after it.

O=C(O)CCCSCCN1C(=O)SC[C@@H]1/C=C/[C@@H](O)Cc1ccccc1 = 56 mL/min/kg

Which clearance reading was recorded for the molecule O=C(O)CCCSCCN1C(=O)OC[C@@H]1/C=C/[C@@H](O)Cc1cccc(C(F)(F)F)c1 ?
67 mL/min/kg

Tell me the measured clearance of O=C(O)CCCSCCN1C(=O)SC[C@@H]1/C=C/[C@@H](O)Cc1cccc(C(F)(F)F)c1 , please.
51 mL/min/kg

----------
biological target: Prostaglandin E2 receptor EP4 subtype (Rattus norvegicus, UniProt P43114); assay: Agonist activity at rat EP4 receptor expressed in CHO cells assessed as cAMP production after 10 mins by radioimmunoassay
OBSERVED PROPERTY: pEC50
Please note pEC50 is a logarithmic value: minus log10 of concentration in mol/L. Answer with that number alone.

Below, 3 compounds whose answers are already recorded.
COCc1cccc(C[C@H](O)/C=C/[C@H]2CCC(=O)N2CCCCCCC(=O)O)c1 = 7.82
O=C(O)CCCSCCN1C(=O)OC[C@@H]1/C=C/[C@@H](O)Cc1cccc(C(F)(F)F)c1 = 7.92
CCCc1cccc(C[C@H](O)/C=C/[C@H]2CSC(=O)N2CCSCCCC(=O)O)c1 = 8.21

Looking for the measured pEC50 of O=C(O)CCCCCCN1C(=S)CC[C@@H]1/C=C/[C@@H](O)Cc1cccc(C(F)(F)F)c1 , can you help?
8.00

These entries and their values trace back to ChEMBL document CHEMBL1926627.
